system: K-562 leukemia; assay: NCI-60 one-dose screen, 48 h; conditions: 10 µM
Compounds without any hit were thinned out: in the full panel of roughly 83,000, 20% have a hit. The source made the active and inactive calls. The calls were made as follows: active = growth percent below 10; inactive = the rest.
Answer with one of the outcomes given here: 1 (yes) for active, 0 (no) for inactive

Reference set, count: 3
compound | class
CC(C)c1ccc(C(=O)Nc2sc3c(c2C(N)=O)CCC(=O)C3=O)cc1 | 0 (no)
COc1ccc(NC(=O)Nc2ccc(OCC(=O)N=Nc3c(O)[nH]c4ccc([N+](=O)[O-])cc34)cc2)cc1 | 0 (no)
COc1ccc(C2NC(=S)NC(C)=C2C(=O)OC(C)C)cc1OC (configuration not stated) | 0 (no)

Would you mind telling me which call this test gave `COC[C@@H](CC(C)C)N=C1NC(=O)/C(=C/c2ccc3ncsc3c2)N1` ?
0 (no)

* * *

test system: HS 578T breast; experiment: NCI-60 one-dose screen, 48 h (100 = growth as untreated, 0 = no growth, -100 = all killed); settings: 10 µM
The panel holds about 83,000 compounds, 20% with a hit somewhere; the sample as a whole holds those more often.
Mark t only when growth stays strictly below 50%. Values equal to the cut-off are f.

Reference set, count: 4
sample_smiles | class
N#Cc1ccc(-c2nn(-c3ccc(C(=O)O)cc3)cc2CNc2ccc(Oc3ccccc3)cc2)cc1 | f
Cc1ccc(/C=C/C(=O)c2ccc(NC(=O)CSc3nnc(-c4c[nH]c5ccccc45)n3-c3ccccc3)cc2)c(C)c1 | f
COc1ccc(-c2nc(S(=O)(=O)c3ccc(C)cc3)c(S(=O)(=O)CC(=O)N(C)Cc3ccccc3)o2)cc1 | f
CN(C(=O)c1ccc(C(F)(F)F)cc1C(F)(F)F)c1sc2c(c1C#N)CCC(=O)C2 | f

Dear reviewer, please state whether `O=C(O)CCCCCCCCCCN1C(=O)/C(=C/c2cnc(-c3ccc(Cl)cc3)s2)SC1=S` has growth strictly beneath 50%.
f

Dear reviewer, please state whether `O=c1[nH]c2ccc(Cl)cc2cc1CSc1ccc(Nc2nccc(-c3ccc4ccccc4c3)n2)cc1` has growth strictly beneath 50%.
f

Dear reviewer, please state whether `COc1ccc2[nH]c(=O)c(CSc3ccc(Nc4nccc(-c5ccc(Cl)cc5)n4)cc3)cc2c1` has growth strictly beneath 50%.
f

Dear reviewer, please state whether `OCCCNc1oc(-c2ccccc2)nc1[P+](c1ccccc1)(c1ccccc1)c1ccccc1` has growth strictly beneath 50%.
t

Dear reviewer, please state whether `COc1ccc(CN2[C@H](C(=O)NCc3ccc(C(=O)NO)cc3)Cc3c([nH]c4ccccc34)[C@H]2C2CC2)cc1` has growth strictly beneath 50%.
t

Dear reviewer, please state whether `CCCCCCCCCCCCCCCCCCCC(=O)NCCc1c[nH]c2ccc(O)cc12` has growth strictly beneath 50%.
f

Dear reviewer, please state whether `O=C(CS(=O)(=O)c1oc(-c2ccc(Cl)cc2)nc1S(=O)(=O)c1ccc(Cl)cc1)N1CCOCC1` has growth strictly beneath 50%.
f

Dear reviewer, please state whether `CC(=O)NCC1=C(C)C=C2C(=O)[C@](C)(O)C3(CC3)C(C)=C21` has growth strictly beneath 50%.
t

* * *

test system: SN12C renal; assay: NCI-60 one-dose screen, 48 h (100 = growth as untreated, 0 = no growth, -100 = all killed); settings: 10 µM
The panel holds about 83,000 compounds, 20% with a hit somewhere; the sample as a whole holds those more often.
If the reported growth equals or exceeds 60%, assign criterion met. If not, assign criterion not met.

Reference set, count: 3
molecule | class
Cc1ccc(C(=O)NCCCNc2nc(Nc3ccc(N4CCN(C)CC4)cc3)nc3ccsc23)cc1 | criterion met
COc1ccccc1NCc1ccc(CO)n1-c1ccc(C)cc1 | criterion met
Cc1cc(=O)oc2cc(OCCCCOc3ccc(/C=C/C(=O)Nc4cccc(Cl)c4)cc3)ccc12 | criterion met

Check this molecule for growth at or above 60%: `O=S(=O)(Nc1ncccn1)c1ccc(-n2c(-c3ccc(Br)cc3)nc(-c3ccccc3)c2-c2ccccc2)cc1`
criterion not met

Check this molecule for growth at or above 60%: `Cc1ccc(-c2nc3ccc(C(=O)N=Nc4c(O)[nH]c5ccc(Br)cc45)cc3[nH]2)cc1`
criterion met

Check this molecule for growth at or above 60%: COc1ccc([C@H]2C(C(=O)c3ccc(Cl)cc3)C3(N[C@@H]2c2ccccc2)C(=O)Nc2ccc(Br)cc23)cc1 (some centres undefined)
criterion not met

Check this molecule for growth at or above 60%: `CC(C)(C)c1ccc(NCc2cn(-c3ccc(C(=O)O)cc3)nc2-c2ccc(C#N)cc2)cc1`
criterion not met

Check this molecule for growth at or above 60%: `O=C1Nc2ccc(Cl)cc2/C1=C/c1ccc(OCc2ccccn2)cc1`
criterion not met

Check this molecule for growth at or above 60%: CC1=C(c2cc(-c3ccc(Cl)cc3)c(C#N)c(N)n2)C(c2ccccc2)NC(=S)N1 (centres undefined)
criterion met

Check this molecule for growth at or above 60%: `COc1cc2c3c(n(CCCNCCO)c(=O)c2cc1OC)-c1nc2c(cc1C3=O)OCO2`
criterion not met

Check this molecule for growth at or above 60%: `O/N=C(\CSc1nnc(-c2c[nH]c3ccccc23)n1-c1ccccc1)c1ccc(Br)cc1`
criterion not met

Check this molecule for growth at or above 60%: COc1ccc(/C=C/C(=O)c2ccc(NC(=O)CN3C(=O)NC(C)(c4ccccc4)C3=O)cc2)cc1 (centres undefined)
criterion met

Check this molecule for growth at or above 60%: CCOP(=O)(OCC)O[C@H]1CCC(=O)[C@@H]2[C@H]1[C@H]1C[C@@H]3[C@@]4(C)CCCC(C)(C(=O)OC)[C@@H]4CC[C@@]23C=C1C(C)C (some centres undefined)
criterion met
